Target: Human PD-L1/PD-1 (Homo sapiens)
Construct: made in house; host or cells: HEK293T
Sequence (Q9NZQ7 with tags, fused parts or gaps): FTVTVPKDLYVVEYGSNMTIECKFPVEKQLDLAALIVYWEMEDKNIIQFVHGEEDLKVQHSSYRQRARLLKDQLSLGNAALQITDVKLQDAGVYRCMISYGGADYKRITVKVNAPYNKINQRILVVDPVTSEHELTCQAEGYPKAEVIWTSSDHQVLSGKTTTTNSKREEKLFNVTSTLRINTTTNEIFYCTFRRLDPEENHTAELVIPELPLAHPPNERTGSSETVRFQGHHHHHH
Experiment: HTRF PD-1-Ig/PD-L1-His binding assay (human PD-L1)
Settings: cluster symbol; read-out: HTRF IC50 cluster
pIC50: −log10 of the molar value. Positions of bridges follow the written chain, without caps; N, C: chain ends. Non-standard residues stand in square brackets, D forms with d. Residues, ends and D or L forms follow the SMILES beside them. ξ: configuration not given here. *: point of attachment. Bip = N[C@@H](Cc1ccc(-c2ccccc2)cc1)C(=O)O; Bta = N[C@@H](Cc1csc2ccccc12)C(=O)O; Cyclobutanecarbonyl = O=C(C1CCC1)*; NMehSer = CN[C@@H](CCO)C(=O)O; NMeNle = CCCC[C@H](NC)C(=O)O; ξR = N=C(N)NCCCC(N)C(=O)O; NMeA = CN[C@@H](C)C(=O)O; Dab = NCC[C@H](N)C(=O)O; ξP = O=C(O)C1CCCN1; ξC = NC(CS)C(=O)O; ξS = NC(CO)C(=O)O; Sar = CNCC(=O)O
Provide the recorded pIC50 for the entries that follow.

Req: Report pIC50 for CCCC[C@H]1C(=O)N(C)[C@@H](COc2cccc(C)c2)C(=O)N[C@@H](CCCNC(=N)N)C(=O)N[C@H](C(=O)NCC(N)=O)CSCC(=O)N[C@@H](Cc2ccc(O)cc2)C(=O)N(C)[C@@H](C)C(=O)N[C@@H](CC(N)=O)C(=O)N2CCC[C@H]2C(=O)N[C@@H](CN)C(=O)N[C@@H](CC(C)C)C(=O)N2C[C@H](O)C[C@H]2C(=O)N[C@@H](Cc2c[nH]c3ccccc23)C(=O)N[C@@H](CO)C(=O)N[C@@H](Cc2csc3ccccc23)C(=O)N1C [Example 5005] tested on Human PD-L1/PD-1 (Homo sapiens).
Resp: 7.52 to 8.17

Req: Under Human PD-L1/PD-1 (Homo sapiens): pIC50 value of CC(C)C[C@@H]1NC(=O)[C@H](Cc2cnc[nH]2)NC(=O)[C@@H]2CCCN2C(=O)[C@H](CC(N)=O)NC(=O)[C@H](C)N(C)C(=O)[C@H](Cc2ccccc2)NC(=O)CSC[C@@H](C(=O)NCC(N)=O)NC(=O)[C@H](CCCNC(=N)N)NC(=O)[C@H](C)N(C)C(=O)[C@H](CCNC(=O)C2CCC2)NC(=O)[C@H](Cc2c[nH]c3ccccc23)NC(=O)[C@H](CO)NC(=O)[C@H](Cc2c[nH]c3ccccc23)NC(=O)CN(C)C1=O [Example 1034] ({CH2CO}-F[NMeA]NPHL[Sar]WSW[Dab](Cyclobutanecarbonyl)[NMeA]RCG-NH2; thioether N-14) ?
Resp: < 7.52

Req: Param readout= pIC50; system= Human PD-L1/PD-1 (Homo sapiens); entry= CCCC[C@H]1C(=O)N(C)[C@@H](CCCC)C(=O)NC(CCCNC(=N)N)C(=O)NC(C(=O)NCC(N)=O)CSCC(=O)N[C@@H](Cc2ccccc2)C(=O)N(C)[C@@H](C)C(=O)N[C@@H](CC(N)=O)C(=O)N2CCCC2C(=O)N[C@@H](Cc2cnc[nH]2)C(=O)N[C@@H](CC(C)C)C(=O)N(C)CC(=O)N[C@@H](Cc2c[nH]c3ccccc23)C(=O)NC(CO)C(=O)N[C@@H](Cc2ccc(-c3ccccc3)cc2)C(=O)N1C (stereo partly shown) [Example 1028] ({CH2CO}-F[NMeA]N[ξP]HL[Sar]W[ξS][Bip][NMeNle][NMeNle][ξR][ξC]G-NH2; thioether N-14) ; returns value.
Resp: < 7.52

Req: I'm curious: which pIC50 was measured for CCCC[C@H]1C(=O)N[C@@H](CCCNC(=N)N)C(=O)NC(C(=O)NCC(N)=O)CSCC(=O)N[C@@H](Cc2ccc(O)cc2)C(=O)N(C)[C@@H](C)C(=O)N[C@@H](CC(=O)O)C(=O)N2CCC[C@H]2C(=O)N[C@@H](Cc2cnc[nH]2)C(=O)N[C@@H](CC(C)C)C(=O)N2CCC[C@H]2C(=O)N[C@@H](Cc2c[nH]c3ccccc23)C(=O)N[C@@H](CO)C(=O)N[C@@H](Cc2csc3ccccc23)C(=O)N(C)[C@@H](CCOC)C(=O)N1C (stereo partly shown) [Example 9009] ({CH2CO}-Y[NMeA]DPHLPWS[Bta][NMehSer](Me)[NMeNle]R[ξC]G-NH2; thioether N-14) tested on Human PD-L1/PD-1 (Homo sapiens)?
Resp: 7.52 to 8.17

###

Molecular target: LK35.2-hPD-L1 cells / PE-labeled PD-1-Ig (Homo sapiens, UniProt Q9NZQ7)
Construct: expressed in transfected cells; host or cells: LK35.2 mouse B cell line
Sequence (Q9NZQ7 19-290): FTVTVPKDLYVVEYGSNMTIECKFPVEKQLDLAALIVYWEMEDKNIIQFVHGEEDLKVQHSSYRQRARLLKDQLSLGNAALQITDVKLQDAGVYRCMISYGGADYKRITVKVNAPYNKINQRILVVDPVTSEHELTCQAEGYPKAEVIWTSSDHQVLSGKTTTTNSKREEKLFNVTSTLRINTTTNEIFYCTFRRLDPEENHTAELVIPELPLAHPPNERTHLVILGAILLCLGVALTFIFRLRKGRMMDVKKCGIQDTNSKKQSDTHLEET
Assay: LK35.2-hPD-L1 cell binding high-content screening assay
Format: cell-based
Details: cluster symbol; cell line of CBA not given (LK35.2-hPD-L1 or 293T-hPD-L1); read-out: CBA IC50 cluster
Positions of bridges follow the written chain, without caps; N, C: chain ends. Non-standard residues stand in square brackets, D forms with d. Residues, ends and D or L forms follow the SMILES beside them. Phe(4-CH2NH2) = NCc1ccc(C[C@H](N)C(=O)O)cc1; Phe(4-Me) = Cc1ccc(C[C@H](N)C(=O)O)cc1; Bta = N[C@@H](Cc1csc2ccccc12)C(=O)O; NMeF = CN[C@@H](Cc1ccccc1)C(=O)O; NMeNle = CCCC[C@H](NC)C(=O)O; Sar = CNCC(=O)O
Readout Label: IC50

Req: What reported IC50 corresponds to CCCC[C@H]1C(=O)N(C)[C@@H](CCCC)C(=O)N[C@@H](CCCNC(=N)N)C(=O)N[C@H](C(=O)NCC(N)=O)CSCC(=O)N[C@@H](Cc2ccc(O)cc2)C(=O)N(C)[C@@H](C)C(=O)N[C@@H](CC(N)=O)C(=O)N2CCC[C@H]2C(=O)N[C@@H](Cc2cnc[nH]2)C(=O)N[C@@H](CC(C)C)C(=O)N2C[C@H](O)C[C@H]2C(=O)N[C@@H](Cc2c[nH]c3ccccc23)C(=O)N[C@@H](CO)C(=O)N[C@@H](Cc2c[nH]c3ccccc23)C(=O)N1C [Example 1119] on LK35.2-hPD-L1 cells / PE-labeled PD-1-Ig (Homo sapiens, UniProt Q9NZQ7)?
Resp: 0.158 to 4.71 nM

Req: Value wanted: IC50 (LK35.2-hPD-L1 cells / PE-labeled PD-1-Ig (Homo sapiens, UniProt Q9NZQ7)) of entry CCCC[C@H]1C(=O)N(C)CC(=O)N[C@@H](CC(=O)O)C(=O)N[C@@H](C(C)C)C(=O)N(C)[C@@H](Cc2ccccc2)C(=O)N[C@@H](Cc2ccc(CN)cc2)C(=O)N(C)CC(=O)N[C@@H](Cc2csc3ccccc23)C(=O)N[C@@H](Cc2ccc(O)cc2)C(=O)N[C@@H](CC(C)C)C(=O)N[C@H](C(=O)NCC(N)=O)CSCC(=O)N[C@@H](Cc2ccccc2)C(=O)N(C)[C@@H](Cc2ccccc2)C(=O)N1C [Example 3141] ({CH2CO}-F[NMeF][NMeNle][Sar]DV[NMeF][Phe(4-CH2NH2)][Sar][Bta]YLCG-NH2; thioether N-13)
Resp: 4.78 to 72.9 nM

Req: What reported IC50 corresponds to CCCC[C@H]1C(=O)N(C)CC(=O)N[C@@H](CC(=O)O)C(=O)N[C@@H](C(C)C)C(=O)N(C)[C@@H](Cc2ccccc2)C(=O)N[C@@H](Cc2ccc(O)cc2)C(=O)N(C)CC(=O)N[C@@H](Cc2c[nH]c3ccccc23)C(=O)N[C@@H](Cc2ccc(O)cc2)C(=O)N[C@@H](CC(C)C)C(=O)N[C@H](C(=O)NCC(N)=O)CSCC(=O)N[C@@H](Cc2ccc(C)cc2)C(=O)N(C)[C@@H](Cc2ccccc2)C(=O)N1C [Example 3094] ({CH2CO}-[Phe(4-Me)][NMeF][NMeNle][Sar]DV[NMeF]Y[Sar]WYLCG-NH2; thioether N-13) on LK35.2-hPD-L1 cells / PE-labeled PD-1-Ig (Homo sapiens, UniProt Q9NZQ7)?
Resp: 4.78 to 72.9 nM

Req: Hello, I am looking for reported IC50 with LK35.2-hPD-L1 cells / PE-labeled PD-1-Ig (Homo sapiens, UniProt Q9NZQ7) for CCCC[C@H]1C(=O)N(C)CC(=O)N[C@@H](CC(=O)O)C(=O)N[C@@H]([C@@H](C)OC)C(=O)N(C)[C@@H](Cc2ccccc2)C(=O)N[C@@H](Cc2ccc(O)cc2)C(=O)N(C)CC(=O)N[C@@H](Cc2c[nH]c3ccccc23)C(=O)N[C@@H](Cc2ccc(O)cc2)C(=O)N[C@@H](CC(C)C)C(=O)N[C@H](C(=O)NCC(N)=O)CSCC(=O)N[C@@H](Cc2ccccc2)C(=O)N(C)[C@@H](Cc2ccccc2)C(=O)N1C [Example 3157] ({CH2CO}-F[NMeF][NMeNle][Sar]DT(Me)[NMeF]Y[Sar]WYLCG-NH2; thioether N-13) . Could you help?
Resp: 4.78 to 72.9 nM
